- ASSAY SYSTEM: EGFR (Homo sapiens, UniProt P00533)
- Sequence (P00533 25-1210): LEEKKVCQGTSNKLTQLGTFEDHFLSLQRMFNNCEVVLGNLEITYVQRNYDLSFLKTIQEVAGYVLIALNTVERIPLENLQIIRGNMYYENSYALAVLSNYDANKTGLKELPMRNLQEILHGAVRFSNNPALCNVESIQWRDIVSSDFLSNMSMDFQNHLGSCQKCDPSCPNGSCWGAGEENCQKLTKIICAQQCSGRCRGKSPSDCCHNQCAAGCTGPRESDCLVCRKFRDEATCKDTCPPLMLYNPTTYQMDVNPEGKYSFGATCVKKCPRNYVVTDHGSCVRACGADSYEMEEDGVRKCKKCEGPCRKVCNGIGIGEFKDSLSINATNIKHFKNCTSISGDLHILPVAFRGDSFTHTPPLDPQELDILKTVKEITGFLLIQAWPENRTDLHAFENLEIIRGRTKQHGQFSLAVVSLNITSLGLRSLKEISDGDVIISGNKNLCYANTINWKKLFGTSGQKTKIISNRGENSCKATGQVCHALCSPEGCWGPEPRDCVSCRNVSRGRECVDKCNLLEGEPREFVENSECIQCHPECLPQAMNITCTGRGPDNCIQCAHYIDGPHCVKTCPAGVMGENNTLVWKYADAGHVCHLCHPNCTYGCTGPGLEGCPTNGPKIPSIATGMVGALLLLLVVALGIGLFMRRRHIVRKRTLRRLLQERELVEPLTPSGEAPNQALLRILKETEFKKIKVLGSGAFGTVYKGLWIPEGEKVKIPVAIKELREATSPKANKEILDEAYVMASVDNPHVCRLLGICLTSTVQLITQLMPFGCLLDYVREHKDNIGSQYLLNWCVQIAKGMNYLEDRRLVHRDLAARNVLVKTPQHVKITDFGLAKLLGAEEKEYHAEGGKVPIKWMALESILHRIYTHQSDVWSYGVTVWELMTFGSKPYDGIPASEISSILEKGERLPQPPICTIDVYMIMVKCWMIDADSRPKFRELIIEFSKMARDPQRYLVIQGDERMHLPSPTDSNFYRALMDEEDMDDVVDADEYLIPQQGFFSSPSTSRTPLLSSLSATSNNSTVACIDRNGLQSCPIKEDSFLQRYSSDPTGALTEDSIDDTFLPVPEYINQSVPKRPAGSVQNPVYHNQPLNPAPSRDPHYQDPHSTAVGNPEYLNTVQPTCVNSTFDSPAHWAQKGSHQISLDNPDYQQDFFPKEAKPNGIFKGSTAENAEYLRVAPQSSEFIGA
- ASSAY EXPLANATION: ADP-Glo kinase assay, EGFR
- Assay type: biochemical
- Parameters: purchased BPS Bioscience (assay run externally by the vendor)
- EXPERIMENTAL CONDITIONS: Log[nM] 2.0; Set3
Each entry gets NO if its EGFR % Activity Set3 stays under 50%, and YES if its EGFR % Activity Set3 is 50% or above.

Input line: Does `Cc1ccccc1Nc1ncnc2[nH]ccc12` have a reported EGFR % Activity Set3 of at least 50%?
Output line: YES

Input line: Does `Cc1cccc(Nc2ncnc3[nH]ccc23)c1` have a reported EGFR % Activity Set3 of at least 50%?
Output line: NO

Input line: Does `Clc1ccc(Nc2ncnc3[nH]ccc23)cc1` have a reported EGFR % Activity Set3 of at least 50%?
Output line: YES

Input line: Does `Fc1cc(Nc2ncnc3[nH]ccc23)ccc1Cl` have a reported EGFR % Activity Set3 of at least 50%?
Output line: NO

Input line: Does `c1ccc(Nc2ncnc3[nH]ccc23)cc1` have a reported EGFR % Activity Set3 of at least 50%?
Output line: YES

Input line: Does `Clc1ccc(Nc2ncnc3[nH]ccc23)cc1Br` have a reported EGFR % Activity Set3 of at least 50%?
Output line: NO

Input line: Does `Clc1ccccc1Nc1ncnc2[nH]ccc12` have a reported EGFR % Activity Set3 of at least 50%?
Output line: YES

Input line: Does `c1ccc(Cc2ccc(Nc3ncnc4[nH]ccc34)cc2)cc1` have a reported EGFR % Activity Set3 of at least 50%?
Output line: NO

Input line: Does `Nc1nc(Nc2cccc(Br)c2)c2cc[nH]c2n1` have a reported EGFR % Activity Set3 of at least 50%?
Output line: YES

Input line: Does `Clc1cccc(Nc2ncnc3[nH]ccc23)c1` have a reported EGFR % Activity Set3 of at least 50%?
Output line: NO

Input line: Does `Cc1ccc(Nc2ncnc3[nH]ccc23)cc1` have a reported EGFR % Activity Set3 of at least 50%?
Output line: YES

Input line: Does `Clc1ccc(Nc2ncnc3[nH]ccc23)cc1Cl` have a reported EGFR % Activity Set3 of at least 50%?
Output line: NO

Input line: Does `COc1ccc(Nc2ncnc3[nH]ccc23)cc1` have a reported EGFR % Activity Set3 of at least 50%?
Output line: YES

Input line: Does `Brc1cccc(Nc2ncnc3[nH]ccc23)c1` have a reported EGFR % Activity Set3 of at least 50%?
Output line: NO

Input line: Does `c1ccc(Oc2ccc(Nc3ncnc4[nH]ccc34)cc2)cc1` have a reported EGFR % Activity Set3 of at least 50%?
Output line: YES

Input line: Does `FC(F)(F)c1cccc(Nc2ncnc3[nH]ccc23)c1` have a reported EGFR % Activity Set3 of at least 50%?
Output line: NO
